STUDY SYSTEM: Full length DGKζ (in-house protein M1-V929) (Homo sapiens)
Construct: His (N); TEV site (N)
Sequence (Q13574 1-929 isoform Q13574-4): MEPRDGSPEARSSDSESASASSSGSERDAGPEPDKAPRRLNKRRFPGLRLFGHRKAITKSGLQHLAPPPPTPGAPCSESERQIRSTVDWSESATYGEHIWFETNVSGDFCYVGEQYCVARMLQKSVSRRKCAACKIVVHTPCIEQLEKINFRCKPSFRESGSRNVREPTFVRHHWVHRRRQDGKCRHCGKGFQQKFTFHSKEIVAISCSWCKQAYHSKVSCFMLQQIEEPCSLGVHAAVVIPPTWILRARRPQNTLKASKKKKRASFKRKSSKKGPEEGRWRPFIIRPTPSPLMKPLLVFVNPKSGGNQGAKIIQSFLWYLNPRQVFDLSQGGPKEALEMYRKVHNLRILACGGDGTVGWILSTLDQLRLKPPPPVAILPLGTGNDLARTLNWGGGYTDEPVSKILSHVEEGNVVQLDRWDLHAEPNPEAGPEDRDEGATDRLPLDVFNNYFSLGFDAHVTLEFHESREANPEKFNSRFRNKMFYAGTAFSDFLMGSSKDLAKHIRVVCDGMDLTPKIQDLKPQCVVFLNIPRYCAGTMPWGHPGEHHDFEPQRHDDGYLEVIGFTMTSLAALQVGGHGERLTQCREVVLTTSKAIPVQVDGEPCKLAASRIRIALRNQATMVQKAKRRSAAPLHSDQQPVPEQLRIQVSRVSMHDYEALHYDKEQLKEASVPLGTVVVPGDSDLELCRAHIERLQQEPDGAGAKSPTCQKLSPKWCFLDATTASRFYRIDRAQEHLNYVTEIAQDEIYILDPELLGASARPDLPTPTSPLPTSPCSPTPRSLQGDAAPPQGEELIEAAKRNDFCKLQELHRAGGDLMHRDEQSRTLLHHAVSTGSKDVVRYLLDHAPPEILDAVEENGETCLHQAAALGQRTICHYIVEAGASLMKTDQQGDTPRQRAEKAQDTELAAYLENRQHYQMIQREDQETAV
PROCEDURE DETAILS: Biochemical DGK IC50 assay (ADP-Glo, lipid micelle substrate), DGKζ
CONDITION SUMMARY: 1 hour preincubation, 1 hour reaction, room temperature
Quick reference: log10 of IC50 of the listed items.
MEASURED PROPERTY: log10 of IC50 (log10 of the value in nM)

compound="CC(c1ccc2c(c1)OC(C)(C)CO2)N1C[C@H](C)N(c2nc(=O)n(C)c3c2nc(CC#N)n3C)C[C@H]1C (single isomer, unassigned) [Compound A59b]" measured_property="log10 of IC50" result=0.36
compound="CC(c1ccc2c(c1)OC(C)(C)CO2)N1C[C@H](C)N(c2c(F)c(=O)n(C)c3c2nc(CC#N)n3C)C[C@H]1C (single isomer, unassigned) [Compound A19a]" measured_property="log10 of IC50" result=0.45
compound="CCn1c(CC#N)nc2c(N3C[C@@H](C)N(C(C)c4cc(C(F)(F)F)ccn4)C[C@@H]3C)nc(=O)n(C)c21 (some centres unmarked)" measured_property="log10 of IC50" result=3.11
compound="CC#CCc1nc2c(N3C[C@@H](CC)N(C(C)c4ccc(C(F)(F)F)cc4)C[C@@H]3CC)nc(=O)n(C)c2n1C (some centres unmarked)" measured_property="log10 of IC50" result=2.85
compound="CCn1c(CC#N)nc2c(N3C[C@@H](C)N(C(C)c4ccc5c(c4)OC(C)(C)CO5)C[C@@H]3C)nc(=O)n(C)c21 (single isomer, unassigned) [Compound A60a]" measured_property="log10 of IC50" result=0.52
compound="CCn1c(CC#N)nc2c(N3C[C@@H](C)N(C(C)c4ccc5c(c4F)OC(C)(C)O5)C[C@@H]3C)c(F)c(=O)n(C)c21 (single isomer, unassigned) [Compound A190b]" measured_property="log10 of IC50" result=1.61
compound="CCn1c(CC#N)nc2c(N3C[C@@H](C)N(C(C)c4cccc(C(F)(F)F)c4)C[C@@H]3C)nc(=O)n(C)c21 (single isomer, unassigned) [Compound A42a]" measured_property="log10 of IC50" result=1.38
compound="CC[C@@H]1CN(c2nc(=O)n(C)c3c2nc(CC#N)n3C)[C@@H](C)CN1C(C)c1ccc2c(c1)OC(C)(C)CO2 (single isomer, unassigned) [Compound A63b]" measured_property="log10 of IC50" result=1.34
compound="CCn1c(CC#N)nc2c(N3C[C@@H](C)N(C(C)c4cc5c(cc4F)OC(C)(C)O5)C[C@@H]3C)nc(=O)n(C)c21 (single isomer, unassigned) [Compound A174b]" measured_property="log10 of IC50" result=1.84
compound="Cc1ccc(C(C)N2C[C@H](C)N(c3cc(=O)n(C)c4sc(CC#N)nc34)C[C@H]2C)c(C(F)(F)F)c1 (some centres unmarked)" measured_property="log10 of IC50" result=2.87
compound="CCn1c(CC#N)nc2c(N3C[C@@H](C)N(C(C)c4ccc5c(n4)OC(C)CO5)C[C@@H]3C)nc(=O)n(C)c21 (some centres unmarked)" measured_property="log10 of IC50" result=2.52

----------
STUDY SYSTEM: Full length DGKζ (in-house protein M1-V929) (Homo sapiens)
Construct: His (N); TEV site (N)
PROCEDURE DETAILS: Biochemical DGK IC50 assay (ADP-Glo, lipid micelle substrate), DGKζ
CONDITION SUMMARY: 1 hour preincubation, 1 hour reaction, room temperature
pIC50: −log10 of the molar value.
Mark false (0) for pIC50 values under 7, and true (1) for everything at or above.

compound="CC[C@H]1CN(C(C)c2ccc(C(F)(F)F)cc2)[C@H](CC)CN1c1nc(=O)n(C)c2c1nc(CC#N)n2C (single isomer, unassigned) [Compound A149a]" class="true (1)"
compound="CCn1c(CC#N)nc2c(N3C[C@@H](C)N(C(C)c4ccc(F)c(C(F)(F)F)c4)C[C@@H]3C)nc(=O)n(C)c21 (stereo partly drawn)" class="true (1)"
compound="CCn1c(CC#N)nc2c(N3C[C@@H](C)N(C(C)c4cc5c(cc4F)OCC(C)(C)O5)C[C@@H]3C)nc(=O)n(C)c21 (single isomer, unassigned) [Compound A157b]" class="false (0)"
compound="COC[C@H]1CN(C(C)c2ccc(F)cc2C(F)(F)F)[C@H](C)CN1c1nc(=O)n(C)c2c1nc(CC#N)n2C (single isomer, unassigned) [Compound A10a]" class="false (0)"
compound="CCn1c(CC#N)nc2c(N3C[C@@H](C)N(C(C)c4ccc5occ(C)c(=O)c5c4)C[C@@H]3C)nc(=O)n(C)c21 (stereo partly drawn)" class="true (1)"
compound="Cc1ccc(C(C)N2C[C@H](C)N(c3c(F)c(=O)n(C)c4c3nc(CC#N)n4C)C[C@H]2C)c(C(F)(F)F)c1 (single isomer, unassigned) [Compound A15b]" class="false (0)"
compound="CC(c1ccc(F)cc1OC(F)F)N1C[C@H](C)N(c2nc(=O)n(C)c3c2nc(CC#N)n3C)C[C@H]1C (stereo partly drawn)" class="true (1)"
compound="CC(OC(F)F)c1cc(F)ccc1C(C)N1C[C@H](C)N(c2nc(=O)n(C)c3c2nc(CC#N)n3C)C[C@H]1C (single isomer, unassigned) [Compound A29a]" class="false (0)"
compound="CC(c1ccc2nccnc2c1)N1C[C@H](C)N(c2cc(=O)n(C)c3sc(CC#N)nc23)C[C@H]1C (single isomer, unassigned) [Compound A194a]" class="true (1)"
compound="CCn1c(CC#N)nc2c(N3C[C@@H](C)N(C(C)c4ccc(F)c(C(F)F)c4)C[C@@H]3C)nc(=O)n(C)c21 (stereo partly drawn)" class="true (1)"
compound="CCn1c(CC#N)nc2c(N3C[C@@H](C)N(C(C)c4cccc(C(C)C)c4)C[C@@H]3C)nc(=O)n(C)c21 (mixture of isomers) [Compound A108]" class="true (1)"
compound="COc1cc(F)ccc1C(C)N1C[C@H](C)N(c2nc(=O)n(C)c3c2nc(CC#N)n3C)C[C@H]1C (single isomer, unassigned) [Compound A24b]" class="true (1)"
compound="CCn1c(CC#N)nc2c(N3C[C@@H](C)N(C(C)c4cc5c(cc4F)OC(C)(C)CO5)C[C@@H]3C)nc(=O)n(C)c21 (single isomer, unassigned) [Compound A156b]" class="true (1)"
compound="CCn1c(CC#N)nc2c(N3C[C@@H](C)N(C(C)c4ccc5c(c4)C(F)(F)CCO5)C[C@@H]3C)nc(=O)n(C)c21 (stereo partly drawn)" class="true (1)"
compound="CCn1c(CC#N)nc2c(N3C[C@@H](C)N(C(C)c4cccc(C(C)C)c4)C[C@@H]3C)nc(=O)n(C)c21 (single isomer, unassigned) [Compound A108b]" class="false (0)"
compound="CC(c1ccc2c(c1)OCCO2)N1C[C@H](C)N(c2nc(=O)n(C)c3c2nc(CC#N)n3C)C[C@H]1C (single isomer, unassigned) [Compound A58b]" class="false (0)"
compound="CCn1c(=O)nc(N2C[C@@H](C)N(C(C)c3ccc4ncc(C)nc4c3)C[C@@H]2C)c2nc(CC#N)n(C)c21 (single isomer, unassigned) [Compound A53b]" class="false (0)"
compound="Cc1cnc2ccc(C(C)N3C[C@H](C)N(c4nc(=O)n(C)c5c4nc(CC#N)n5C)C[C@H]3C)cc2n1 (stereo partly drawn) [Compound A49]" class="true (1)"
compound="CC(c1ccc(F)cc1C(F)F)N1C[C@H](C)N(c2nc(=O)n(C)c3c2nc(CC#N)n3C)C[C@H]1C (stereo partly drawn)" class="true (1)"
compound="CC#CC(c1ccc(C)cc1)N1C[C@H](C)N(c2nc(=O)n(C)c3c2nc(CC#N)n3CC)C[C@H]1C (stereo partly drawn)" class="false (0)"
compound="CCn1c(CC#N)nc2c(N3C[C@@H](C)N(C(C)c4ccnc(C(C)(C)C)c4)C[C@@H]3C)nc(=O)n(C)c21 (stereo partly drawn)" class="true (1)"
